# credit: the supplement of paper PMC13380429

System: Vero E6 infected with SARS-CoV-2
Assay: inhibition of SARS-CoV-2 cytopathic effect; higher = more antiviral protection, active = above 15
Settings: 100 nM; 48 h
List of inhibition of SARS-CoV-2 cytopathic effect values.

1) CC(=O)NCCCCCC(=O)O
0.61% (inactive)

The compound O=c1[nH]c(CCl)nc2sc3c(c12)CCCC3 showed inhibition of SARS-CoV-2 cytopathic effect equal to -1.12% (inactive)

The compound CC(C)(O)[C@@H]1[C@H]2OC(=O)[C@@H]1[C@]1(O)C[C@H]3O[C@]34C(=O)O[C@H]2[C@]14C showed inhibition of SARS-CoV-2 cytopathic effect equal to 1.26% (inactive)

The compound CC[C@]1(O)C[C@@H]2CN(CCc3c([nH]c4ccccc34)[C@@](C(=O)OC)(c3cc4c(cc3OC)N(C)[C@H]3[C@@](O)(C(N)=O)[C@H](O)[C@]5(CC)C=CCN6CC[C@]43[C@@H]65)C2)C1 showed inhibition of SARS-CoV-2 cytopathic effect equal to -1.63% (inactive)

The compound NCC(=O)O showed inhibition of SARS-CoV-2 cytopathic effect equal to 1.12% (inactive)

The compound C[C@]12Cc3c[nH]nc3C[C@@H]1CC[C@@H]1[C@@H]2CC[C@@]2(C)[C@H]1CC[C@]2(C)O showed inhibition of SARS-CoV-2 cytopathic effect equal to -4.66% (inactive)

The compound C[C@@H](Nc1cc(F)cc(F)c1)c1cc(C(=O)N(C)C)cc2c(=O)cc(N3CCOCC3)oc12 showed inhibition of SARS-CoV-2 cytopathic effect equal to -5.04% (inactive)

----------
Test system: Vero E6 infected with SARS-CoV-2
Assay: morphology score (similarity to uninfected cells); higher = more like uninfected cells
Details: 24 h
Outcome label depends on morphology score relative to 0.07: at/above gives t, below gives f.

// known answers, use as guide
1) C[C@H](N)[C@H](O)c1ccc(O)c(O)c1 [levonordefrin] (10 µM)
t
2) COc1ccc(N(C)c2nc(C)nc3ccccc23)cc1 [verubulin] (10 µM)
f
3) C#CCN1C(C)=C(C(=O)OC)C(c2cccc([N+](=O)[O-])c2)C(C(=O)OCC)=C1C (centres undefined) (10 µM)
f

morphology score >= 0.07 for O=C(N[C@H]1CN2CCC1CC2)c1ccc(Cl)cc1 (10 µM) ?
f

morphology score >= 0.07 for N=C(N)c1ccc(OCCCCCOc2ccc(C(=N)N)cc2)cc1 [pentamidine] (10 µM) ?
t

morphology score >= 0.07 for CCCc1ncc(C[n+]2ccccc2C)c(N)n1 [amprolium] (10 µM) ?
f

morphology score >= 0.07 for COc1cccc(N(C)C(=S)Oc2ccc3c(c2)CCCC3)n1 [liranaftate] (10 µM) ?
t

morphology score >= 0.07 for Cc1ncc(-c2csc(N=C(N)N)n2)[nH]1 [zaltidine] (10 µM) ?
f

morphology score >= 0.07 for CCCCCCCCCCCCOS(=O)(=O)O [dodecyl-sulfate] (10 µM) ?
t

----------
Test system: Vero E6 infected with SARS-CoV-2
Assay: inhibition of SARS-CoV-2 cytopathic effect; higher = more antiviral protection, active = above 15
Details: 8.33 nM; 48 h
measurement.kind: inhibition of SARS-CoV-2 cytopathic effect (%)
Express it in %; write the number only.

# count of solved cases: 8
1) CN1C[C@@H]2CN(c3ccc(-c4ccccc4)nn3)C[C@@H]2C1
-1.9
2) Clc1ccc([C@]23CNC[C@H]2C3)cc1Cl
2.82
3) CC#CCC(C)[C@H](O)/C=C/[C@@H]1[C@H]2C/C(=C/CCCC(=O)O)C[C@H]2C[C@H]1O (stereo partly specified)
-1.1
4) CCCCN(CCCC)CCC(O)c1cc2c(Cl)cc(Cl)cc2c2cc(C(F)(F)F)ccc12 (stereo unspecified)
2.28
5) COc1cc(C(=O)N2CCC(N3CCN(C)CC3)CC2)ccc1Nc1ncc2c(n1)N(C)c1ccccc1C(=O)N2C
-0.23
6) CC(C)(C)C(=O)OCOC(=O)[C@@H]1N2C(=O)C[C@H]2S(=O)(=O)C1(C)C
-4.28
7) O=C1c2c(O)ccc(O)c2C(=O)c2c(NCCNCCO)ccc(NCCNCCO)c21
0.03
8) Cc1nnc2n1-c1sc(CCC(=O)N3CCOCC3)cc1C(c1ccccc1Cl)=NC2
-1.44

Fill in: Vero E6 infected with SARS-CoV-2 inhibition of SARS-CoV-2 cytopathic effect for C=C1/C(=C\C=C2/CCC[C@]3(C)[C@@H]([C@H](C)/C=C/[C@@H](O)C4CC4)CC[C@@H]23)C[C@@H](O)C[C@@H]1O = 1.94

Fill in: Vero E6 infected with SARS-CoV-2 inhibition of SARS-CoV-2 cytopathic effect for C[C@@H](NC(=O)[C@@H](N)Cc1ccc(O)cc1)C(=O)NCC(=O)N(C)[C@@H](Cc1ccccc1)C(=O)N[C@H](CO)CC[S+](C)[O-] (stereo partly specified) = -1.1

Fill in: Vero E6 infected with SARS-CoV-2 inhibition of SARS-CoV-2 cytopathic effect for CC(C)(O)c1ccn2c(-c3ccc(F)c(-c4ccc(F)cc4C#N)c3)cnc2c1F = 0.82

Fill in: Vero E6 infected with SARS-CoV-2 inhibition of SARS-CoV-2 cytopathic effect for N=C(N)NN=C1C=CC(=NNC(N)=S)C=C1 = 1.52

Fill in: Vero E6 infected with SARS-CoV-2 inhibition of SARS-CoV-2 cytopathic effect for Cc1cc(C2CCCCC2)n(O)c(=O)c1 = 1.21

Fill in: Vero E6 infected with SARS-CoV-2 inhibition of SARS-CoV-2 cytopathic effect for CN1CCc2c(c3ccccc3n2Cc2ccccc2)C1 [mebhydrolin] = 2.44

Fill in: Vero E6 infected with SARS-CoV-2 inhibition of SARS-CoV-2 cytopathic effect for CC(O)CN1CCN(CC(=O)[O-])CCN(CC(=O)[O-])CCN(CC(=O)[O-])CC1.[Gd+3] (stereo unspecified) = -0.76

Fill in: Vero E6 infected with SARS-CoV-2 inhibition of SARS-CoV-2 cytopathic effect for COc1cc2nc(N3CCN(C(=O)C4CCCO4)CC3)nc(N)c2cc1OC (stereo unspecified) = -0.59

----------
System: Vero E6 infected with SARS-CoV-2
Assay: SARS-CoV-2 infection rate relative to infected DMSO; higher = more infection, active = 60 or less
Conditions: 24 h
List of SARS-CoV-2 infection rate values.

The compound Cc1c(Cc2ccc3ccccc3n2)c2cc(F)ccc2n1CC(=O)O (10 µM) showed SARS-CoV-2 infection rate equal to 102% (inactive)

----------
System: Vero E6 infected with SARS-CoV-2
Experiment: morphology score (similarity to uninfected cells); higher = more like uninfected cells
Details: 24 h
List of morphology score values.
Please reply with the number alone, leaving off any unit.

1. CN(C)c1ccc(-c2nc3c(N4CCN(CC(=O)Nc5nccs5)CC4)c(Cl)cnc3[nH]2)cc1 (10 µM)
0.47

The molecule C#C[C@]1(OC(C)=O)CC[C@H]2[C@@H]3CCC4=C[C@@H](OC(C)=O)CC[C@@H]4[C@H]3CC[C@@]21C [ethynodiol-diacetate] (10 µM) showed morphology score equal to -0.0396

The molecule C[C@@H]1COCCN1c1cc(=O)n2c(n1)N(Cc1cncc(Cl)c1)[C@H](C(F)(F)F)CC2 (0.833333 µM) showed morphology score equal to 0.55

The molecule O=C1[C@H](Cc2ccc(O)cc2)N2C(=O)CCN(C(=O)NCc3ccccc3)[C@H]2CN1Cc1cccc2ccccc12 (10 µM) showed morphology score equal to 0.0761

The molecule O=C1c2ccccc2C(Cc2ccnc(F)c2)(Cc2ccnc(F)c2)c2ccccc21 (10 µM) showed morphology score equal to -0.17

The molecule CS(=O)(=O)c1cc(F)cc2c3c(n(Cc4ccc(Cl)cc4)c12)[C@@H](CC(=O)O)CC3 [laropiprant] (10 µM) showed morphology score equal to 0.0115

The molecule O=c1c2ccccc2[se]n1-c1ccccc1 [ebselen] (10 µM) showed morphology score equal to 0.34

----------
List of inhibition of SARS-CoV-2 cytopathic effect values.
Test system: Vero E6 infected with SARS-CoV-2
Experiment: inhibition of SARS-CoV-2 cytopathic effect; higher = more antiviral protection, active = above 15
Settings: 1 nM; 48 h
Express it in %; write the number only.

# count of solved cases: 4
1) Oc1cc2c(cc1O)[C@H](Cc1cccc3ccccc13)NCC2
1.2
2) C[C@]1(c2nc3c(C(N)=O)cccc3[nH]2)CCCN1
3.9
3) CN(C)C(=N)NCCC[C@H](N)C(=O)O
-0.33
4) N#Cc1cccc(C(=O)Nc2cc(-c3ccccc3)nn2-c2ccccc2)c1
1.77

The compound NC[C@@H]1CC[C@@H](N)[C@@H](O[C@H]2[C@H](O)[C@@H](O[C@H]3O[C@H](CO)[C@@H](O)[C@H](N)[C@H]3O)[C@H](N)C[C@@H]2N)O1 showed inhibition of SARS-CoV-2 cytopathic effect equal to 5.18

The compound CC(C)(Oc1ccc(Cl)cc1)C(=O)OCCOC(=O)c1cccnc1 [etofibrate] showed inhibition of SARS-CoV-2 cytopathic effect equal to 0.78

The compound CN1[C@@H]2CC[C@H]1C[C@@H](OC(=O)[C@H](CO)c1ccccc1)C2 showed inhibition of SARS-CoV-2 cytopathic effect equal to 1.06

The compound CC(=O)N[C@H](Cc1ccc2ccccc2c1)C(=O)N[C@H](Cc1ccc(Cl)cc1)C(=O)N[C@H](Cc1cccnc1)C(=O)N[C@@H](CO)C(=O)N[C@@H](Cc1ccc(NC(=O)[C@@H]2CC(=O)NC(=O)N2)cc1)C(=O)N[C@H](Cc1ccc(NC(N)=O)cc1)C(=O)N[C@@H](CC(C)C)C(=O)N[C@@H](CCCCNC(C)C)C(=O)N1CCC[C@H]1C(=O)N[C@H](C)C(N)=O showed inhibition of SARS-CoV-2 cytopathic effect equal to -0.25

The compound NS(=O)(=O)c1ccc(C(=O)O)cc1 [carzenide] showed inhibition of SARS-CoV-2 cytopathic effect equal to -1.83
